molecular target: T1, human TfR extracellular domain with N-terminal His tag (human, UniProt P02786 89-760); test: SPR, Fab
T1 construct: Biotinylated in some assays; also called huTfR; HuTfR
T1 sequence (P02786 89-760 G142S): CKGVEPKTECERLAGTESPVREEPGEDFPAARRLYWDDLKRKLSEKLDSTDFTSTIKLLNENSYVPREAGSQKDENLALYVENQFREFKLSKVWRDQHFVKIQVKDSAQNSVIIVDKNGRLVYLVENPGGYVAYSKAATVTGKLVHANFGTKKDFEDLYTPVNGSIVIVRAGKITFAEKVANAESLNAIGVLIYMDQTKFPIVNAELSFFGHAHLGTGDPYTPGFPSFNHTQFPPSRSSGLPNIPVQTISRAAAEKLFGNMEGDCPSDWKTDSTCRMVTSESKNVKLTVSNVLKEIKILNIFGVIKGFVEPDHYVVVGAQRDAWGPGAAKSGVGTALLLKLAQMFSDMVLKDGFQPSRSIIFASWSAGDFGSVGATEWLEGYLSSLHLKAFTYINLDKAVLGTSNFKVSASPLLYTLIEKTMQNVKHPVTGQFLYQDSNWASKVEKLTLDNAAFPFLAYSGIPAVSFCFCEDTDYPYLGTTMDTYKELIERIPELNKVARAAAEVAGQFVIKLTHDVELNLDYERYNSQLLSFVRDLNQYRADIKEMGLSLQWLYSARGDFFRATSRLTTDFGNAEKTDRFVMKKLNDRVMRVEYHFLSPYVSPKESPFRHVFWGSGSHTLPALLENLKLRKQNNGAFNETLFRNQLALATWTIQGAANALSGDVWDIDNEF
pKd: −log10 of the molar value.
Hi, to clarify the labels: TRUE covers pKd from 7 upward, FALSE covers anything below 7.

Is pKd at least 7? Consider F91A (Fab, V domains shown, also called 15G11.v5 F91A (CDR-L3) Fab) VH: EVQLVQSGAEVKKPGASVKVSCKASGYTFTSYWMHWVRQAPGQRLEWIGEINPTNGRTNYIEKFKSRATLTVDKSASTAYMELSSLRSEDTAVYYCARGTRAYHYWGQGTMVTVSS VL: DIQMTQSPSSLSASVGDRVTITCRASDNLYSNLAWYQQKPGKSPKLLVYDATNLADGVPSRFSGSGSGTDYTLTISSLQPEDFATYYCQHAWGTPLTFGQGTKVEIK
FALSE

Is pKd at least 7? Consider Hu15G11.v5.Fab (Fab, V domains shown, Fab) VH: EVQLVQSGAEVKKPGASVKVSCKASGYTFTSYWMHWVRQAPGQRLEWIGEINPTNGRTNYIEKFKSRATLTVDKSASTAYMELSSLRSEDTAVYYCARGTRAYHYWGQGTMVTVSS VL: DIQMTQSPSSLSASVGDRVTITCRASDNLYSNLAWYQQKPGKSPKLLVYDATNLADGVPSRFSGSGSGTDYTLTISSLQPEDFATYYCQHFWGTPLTFGQGTKVEIK
TRUE

Is pKd at least 7? Consider W92A (Fab, V domains shown, also called 15G11.v5 W92A (CDR-L3) Fab) VH: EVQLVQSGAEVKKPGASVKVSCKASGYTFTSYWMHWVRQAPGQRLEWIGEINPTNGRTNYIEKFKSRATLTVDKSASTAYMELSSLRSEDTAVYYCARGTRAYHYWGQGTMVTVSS VL: DIQMTQSPSSLSASVGDRVTITCRASDNLYSNLAWYQQKPGKSPKLLVYDATNLADGVPSRFSGSGSGTDYTLTISSLQPEDFATYYCQHFAGTPLTFGQGTKVEIK
FALSE

Is pKd at least 7? Consider P95A (Fab, V domains shown, also called 15G11.v5 P95A (CDR-L3) Fab) VH: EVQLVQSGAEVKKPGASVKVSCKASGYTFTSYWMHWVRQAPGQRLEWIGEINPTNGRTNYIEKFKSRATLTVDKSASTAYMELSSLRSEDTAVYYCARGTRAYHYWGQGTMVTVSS VL: DIQMTQSPSSLSASVGDRVTITCRASDNLYSNLAWYQQKPGKSPKLLVYDATNLADGVPSRFSGSGSGTDYTLTISSLQPEDFATYYCQHFWGTALTFGQGTKVEIK
FALSE

Is pKd at least 7? Consider G93A (Fab, V domains shown, also called 15G11.v5 G93A (CDR-L3) Fab) VH: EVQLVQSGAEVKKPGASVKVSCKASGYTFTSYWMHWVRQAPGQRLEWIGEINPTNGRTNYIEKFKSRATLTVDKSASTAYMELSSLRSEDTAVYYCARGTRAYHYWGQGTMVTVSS VL: DIQMTQSPSSLSASVGDRVTITCRASDNLYSNLAWYQQKPGKSPKLLVYDATNLADGVPSRFSGSGSGTDYTLTISSLQPEDFATYYCQHFWATPLTFGQGTKVEIK
FALSE
